Taken from patent US4634766A.

- System: guinea pig trachea
- assay_info: Antigen Challenge in vitro Assay: contraction of sensitized tracheal chains by egg albumin
- Type: cell-based
- condition_details: Cavia porcellus; 3 μg/ml
readout_label: inhibition at 3 µg/mL (%)
The response must be a number in % with no trailing unit.

Prompt line: Item "c1ccc2c(c1)Nc1nccnc1O2" : provide inhibition at 3 µg/mL
Response line: 35

Prompt line: Item "CCOC(=O)CN1c2ccccc2Sc2nccnc21" : provide inhibition at 3 µg/mL
Response line: 22

Prompt line: Item "CC(=O)N1c2ccccc2Sc2nccnc21" : provide inhibition at 3 µg/mL
Response line: 14

Prompt line: Item "COc1ccc2c(c1)Sc1nccnc1N2" : provide inhibition at 3 µg/mL
Response line: 42

Prompt line: Item CN1c2ccc(O)cc2Sc2nccnc21 [drawing 21] : provide inhibition at 3 µg/mL
Response line: 71
